# System: cholinesterase (ChE), resistant strain
# Type: biochemical, green rice leafhopper, Nephotettix cincticeps
# cond: ratio of the resistant strain to the susceptible strain (I50); 30 min
# Description: After centrifuged (30,000 g, 10 min.), the supernatant was used as the source of ChE. (2) Inhibition: 1.0 ml of enzyme solution was incubated with 0.1 ml of inhibitor which diluted with acetone at 30° C. for 30 min. ((2) solution). (3) Determination of ChE activity: 1.0 ml of acetylthiochline (3.5/2×10^-2 M), 1.0 ml of DTNB (5,5'-dithiobis-2-nitrobenzoic acid, 2.5×10^-4 M) and 4.0 ml of phosphate buffer (1/15 M, pH 7.4) were added to the (2) solution and incubated at 30° C. for 10 min.
Entries get a class label from measured Inhibition of Cholinesterase R/S (resistant ratio). See ranges: lower segment: < 0.8; middle segment: ≥ 0.8 and < 20; upper segment: ≥ 20

Consider the following illustrative entries.
CCNC(=O)Oc1cccc(C(C)CC)c1 (stereo not shown) : middle segment
CCNC(=O)Oc1ccccc1C(C)C [Compound 2, 2-isopropylpheny-N-ethylcarbamate] : middle segment
C=CCOc1ccccc1OC(=O)NC [Compound 88, reference compound] : middle segment
C#CCOc1cccc(OC(=O)NC)c1 [Compound 100, reference compound] : upper segment
CNC(=O)Oc1ccccc1NC(C)C [Compound 110, reference compound] : upper segment

Lab note: which band did CCCNC(=O)Oc1ccccc1 [Compound 142, phenyl-N-n-propylcarbamate] land in?
lower segment

Tag the class for `CCNC(=O)Oc1cccc(C(C)C)c1`
lower segment

For the record `CCCCNC(=O)Oc1cccc(C)c1` , report the class its Inhibition of Cholinesterase R/S (resistant ratio) corresponds to.
lower segment

Class for CNC(=O)Oc1ccc(SC)c(C)c1 [Compound 135, reference compound] ?
middle segment

Class? Entry: CCC(C)Oc1ccccc1OC(=O)NC (stereo not shown) [Compound 86, reference compound]
upper segment

Determine which band this compound sits in: CCOc1ccccc1OC(=O)NC [Compound 79, reference compound]
middle segment

GET /class?item= C=CCNC(=O)Oc1ccccc1 [Compound 144, phenyl-N-allylcarbamate]
lower segment

// bin(item) where item = CCCCNC(=O)Oc1cccc(C(C)CC)c1 (stereo not shown)
lower segment

Into which category would you place `CCCCNC(=O)Oc1cc(C)cc(C)c1` ?
lower segment

Form: Item = CNC(=O)Oc1ccccc1N(C)C [Compound 106, reference compound] ; Class = ?
middle segment

Dear colleague, I would appreciate it if you could identify the bin for CNC(=O)Oc1cccc(C(C)(C)C)c1 [Compound 32, 3-tert-butylphenyl-N-methylcarbamate, reference compound] and reply at your convenience.
middle segment

# bin lookup: classify C#CCOc1ccccc1OC(=O)NC [Compound 90, reference compound] by its Inhibition of Cholinesterase R/S (resistant ratio)
middle segment

Which bin, given its Inhibition of Cholinesterase R/S (resistant ratio), does CCCC(C)c1cccc(OC(=O)NCC)c1 (stereo not shown) occupy?
middle segment

Lab log: CCCCNC(=O)Oc1cccc(C(C)CCC)c1 (stereo not shown) — assign Inhibition of Cholinesterase R/S (resistant ratio) category
lower segment

Just checking, what class would you give C=CCNC(=O)Oc1cccc(C(C)CCC)c1 (stereo not shown) here?
lower segment

Quick check: band for C=CCOc1cccc(OC(=O)NC)c1 [Compound 98, reference compound]
upper segment

Pick a category. Item: `C=CCNC(=O)Oc1cccc(C(C)(C)C)c1`
lower segment

###

As shown below, each of these molecules has a reported death ratio (%), mixture with Compound No. 1 value.
# Test system: green rice leafhoppers of the strain RN
# assay_name: Test Example 3: dust spray test (20 mesh metal gauze cylinder)
# Assay type: in vivo, Nephotettix cincticeps
# cond: Table 9; dust mixed with 1; RN
Remember to quote the unit after the number.

Below, 2 molecules whose answers are already recorded.
CCOc1cccc(OC(=O)NC)c1 [Compound 92, reference compound] : 0%
CCNC(=O)Oc1ccccc1OC(C)C [Compound 82, 2-isopropoxyphenyl-N-ethylcarbamate] : 25.0%

Note: attention shifts to another entry.
CCCNC(=O)Oc1ccccc1OC(C)C [Compound 83, 2-isopropoxyphenyl-N-n-propylcarbamate] yielded death ratio (%), mixture with Compound No. 1 of 80.0%

###

# system: cholinesterase (ChE), resistant strain
# Assay type: biochemical, green rice leafhopper, Nephotettix cincticeps
# cond: resistant strain; 50% inhibition concentration; 30° C. 30 min with inhibitor; read-out: Inhibition of Cholinesterase I50 (M) R
# reported IC50; entries follow
Report as a plain number; the unit M is understood.

CNC(=O)Oc1ccccc1NC(C)C [Compound 110, reference compound] : 0.00017

Lab note: measured IC50 of `CCNC(=O)Oc1cccc(OCC)c1` was 0.00035

CNC(=O)Oc1cc(C)c(C)cc1C [Compound 59, reference compound] yielded IC50 of 5.7e-05

The value of IC50 measured for the compound CNC(=O)Oc1ccccc1N(C)C [Compound 106, reference compound] turned out to be 0.00013

Record CCC(C)Oc1ccccc1OC(=O)NC (centres unmarked) [Compound 86, reference compound] . Reported IC50: 6.7e-05

###

# system: cholinesterase (ChE), resistant strain
# Format: biochemical, green rice leafhopper, Nephotettix cincticeps
# cond: resistant strain; 50% inhibition concentration; 30° C. 30 min with inhibitor; read-out: Inhibition of Cholinesterase I50 (M) R
Threshold 0.0001 M. IC50 below it: Criterion met. IC50 at it or above: Criterion not met.

Would you please look over these solved cases?
C=CCNC(=O)Oc1ccccc1 [Compound 144, phenyl-N-allylcarbamate] : Criterion not met
CCCCNC(=O)Oc1ccccc1C(C)CC (stereo not drawn) [Compound 9] : Criterion not met
CNC(=O)Oc1ccccc1OC [Compound 76, reference compound] : Criterion not met
CCCCNC(=O)Oc1cccc(C(C)CC)c1 (stereo not drawn) [Compound 18] : Criterion met
CCc1cccc(OC(=O)NC)c1 [Compound 29, reference compound] : Criterion not met

Is IC50 of CCNC(=O)Oc1cc(C)cc(C)c1 [Compound 41, 3.5-dimethylphenyl-N-ethylcarbamate] strictly below 0.0001 M?
Criterion met

###

# Test system: green rice leafhoppers of the strain RN
# assay_name: Test Example 3: dust spray test (20 mesh metal gauze cylinder)
# Format: in vivo, Nephotettix cincticeps
# cond: Table 9; dust mixed with 81*; RN
Rule: death ratio (%), mixture with Compound No. 81* of 60% or more gives TRUE; anything lower gives FALSE.

These recorded examples may help you get a feel for the data.
C=CCNC(=O)Oc1ccccc1OC(C)C [Compound 85, 2-isopropoxyphenyl-N-allylcarbamate] : TRUE
CCCNC(=O)Oc1cccc(OCC)c1 [Compound 94, 3-ethoxyphenyl-N-n-propylcarbamate] : TRUE
CNC(=O)Oc1ccccc1OC(C)C [Compound 81, 2-isopropoxyphenyl-N-methylcarbamate, reference compound] : FALSE

Item CCOc1ccccc1OC(=O)NC [Compound 79, reference compound] with death ratio (%), mixture with Compound No. 81* of 60% or above?
FALSE

Form field: death ratio (%), mixture with Compound No. 81* at least 60%? Entry: CCCNC(=O)Oc1ccccc1OC(C)C [Compound 83, 2-isopropoxyphenyl-N-n-propylcarbamate]
TRUE

###

# assay_name: in vivo
# cond: mouse, po, 300 mg/kg
Listed here: items and their measured mortality.

CCCNC(=O)Oc1cc(C)c(N(C)C)c(C)c1 [Compound 120] : 100%

Please turn your attention to the following entry.
Record CCCNC(=O)Oc1cccc(C(C)CC)c1 (centres unmarked) [Compound 17, 3-sec-butylphenyl-N-n-propylcarbamate] . Reported mortality: 100%

###

Each entry below lists one item and its recorded IC50 value.
# system: cholinesterase (ChE), susceptible strain
# assay_name: Inhibition of cholinesterase (acetylthiocholine method), susceptible strain enzyme
# Format: biochemical, green rice leafhopper, Nephotettix cincticeps
# cond: 50% inhibition concentration, 30° C. 30 min with inhibitor, read-out: Inhibition of Cholinesterase I50 (M) S

CCCCNC(=O)Oc1cccc(C(C)C)c1 : 7.4e-05 M

Reported cholinesterase (ChE), susceptible strain IC50 for item CNC(=O)Oc1cc(C)c(C)cc1C [Compound 59, reference compound] was 2.3e-06 M

###

# system: cholinesterase (ChE), resistant strain
# Type: biochemical, green rice leafhopper, Nephotettix cincticeps
# cond: resistant strain; 50% inhibition concentration; 30° C. 30 min with inhibitor; read-out: Inhibition of Cholinesterase I50 (M) R
Consider the following molecules and their measured IC50 readings.
Provide the reading as a plain figure in M.

For orientation, consider the following solved cases.
C#CCOc1ccccc1OC(=O)NC [Compound 90, reference compound] : 7.9e-05
CCOc1ccccc1OC(=O)NC [Compound 79, reference compound] : 0.0003

Moving on to another molecule below.
The molecule CCCCNC(=O)Oc1cccc(C(C)C)c1 [Compound 14] showed IC50 equal to 1.7e-05

###

# Test system: cholinesterase (ChE), resistant strain
# Assay type: biochemical, green rice leafhopper, Nephotettix cincticeps
# cond: ratio of the resistant strain to the susceptible strain (I50); 30 min
reported_endpoint: Inhibition of Cholinesterase R/S (resistant ratio)
Form: value (number only, do not type unit).

CCCCNC(=O)Oc1ccc(C)c(C)c1 [Compound 38] : 0.04
CCNC(=O)Oc1cc(C)cc(C)c1 [Compound 41, 3.5-dimethylphenyl-N-ethylcarbamate] : 0.7
CNC(=O)Oc1cc(C)c(C)cc1C [Compound 59, reference compound] : 24.8
CCNC(=O)Oc1cccc(OCC)c1 [Compound 93] : 0.8
CCNC(=O)Oc1cccc(CC)c1 [Compound 30] : 0.8

Known value: cholinesterase (ChE), resistant strain Inhibition of Cholinesterase R/S (resistant ratio) of the compound CCCCNC(=O)Oc1cccc(C(C)C)c1 [Compound 14] equals 0.2

Summary: CCc1cccc(OC(=O)NC)c1 [Compound 29, reference compound] , cholinesterase (ChE), resistant strain, Inhibition of Cholinesterase R/S (resistant ratio) = 41.4

All figures here come from patent US4226883A.
